# Tested on: PC-3 prostate
# EXPERIMENT_DESCRIPTION: NCI-60 one-dose screen, 48 h (100 = growth as untreated, 0 = no growth, -100 = all killed)
# CONDITION_SUMMARY: 10 µM
About 83,000 compounds went through this panel and 20% of them were active in at least one assay; those are over-represented in the sample as a whole.
QUANTITY_NAME: growth (%)

| SMILES_STRUCTURE | RESULT |
| --- | --- |
| O=C(Nc1cccc(Br)c1)Oc1cccc2cccnc12 | 92.9 |
| O=C(Nc1c(Cl)cccc1Cl)Oc1cccc2cccnc12 | 41 |
| CN(C)C(=O)c1ccc(SC(=S)NCc2ccccc2)cc1 | 97.1 |
| COc1ccc(-c2cscc2N)cc1 | 98.4 |
